# test: A qHTS for Small Molecule Inhibitors of Shiga Toxin
# experimental-setup: Vero cells, Shiga toxin protein synthesis inhibition reporter; at 38.7 µM, active compounds read high
Hit rate of the full screen: of about 290,000 compounds, about 27,000 (9.3%) were called active. Shown is part of a subset that was picked to be rich in actives.
The following compounds are shown together with reported inhibition values.
// return numeric value only (unit: %, not printed)

Here is how some compounds turned out for inhibition.
compound: CCOc1ccc(CCNC(=O)Nc2ccccc2)cc1OCC
assay-readout: inhibition
numeric-value: 7.13
//
compound: O=C(Cc1ccc(Cl)cc1)NC1CCS(=O)(=O)C1 (stereo unspecified)
assay-readout: inhibition
numeric-value: 1.56
//
compound: CC(=O)N1c2ccc(S(=O)(=O)N3CCC(C(=O)N4CCN(c5ccccc5)CC4)CC3)cc2CC1C (stereo unspecified)
assay-readout: inhibition
numeric-value: -2.12

Quick check: inhibition of CCCN1CCC(=O)N(C(CSc2ccc(OC)cc2)Cc2ccccc2)CC1 (stereo unspecified) ? -5.53

May I ask what inhibition has been recorded for O=C(Nc1ccc(C2CC2(Cl)Cl)cc1)c1cccc([N+](=O)[O-])c1 (stereo unspecified) ? 76.3

What value of inhibition has been reported for the following compound? CCn1cc(CN2CCC(n3nccc3NC(=O)CCCc3ccccc3)CC2)c(C)n1 -4.01

* * *

# test: A qHTS for Small Molecule Inhibitors of Shiga Toxin
# experimental-setup: Vero cells, Shiga toxin protein synthesis inhibition reporter; at 38.7 µM, active compounds read high
In all, about 290,000 compounds went through this assay and about 27,000 (9.3%) were called active. This excerpt belongs to a sample that is enriched for actives.
assay-readout: inhibition (%)
Answer with a number only, understood to be in %.

Previously resolved entries follow.
compound: O=C(Cn1ccc2cc(S(=O)(=O)N3CCCC3)ccc21)NCc1ccccc1
assay-readout: inhibition
units-symbol: %
numeric-value: -6.39

compound: Cc1ccc(CNC(=O)CCS(=O)(=O)c2ccc3c(c2)CC(C)N3C(=O)C2CC2)o1 (configuration not stated)
assay-readout: inhibition
units-symbol: %
numeric-value: 32.1

compound: O=C(C1CCC(=O)N(C2CC2)C1)N1CCN(c2ccc(Cl)cc2)CC1 (configuration not stated)
assay-readout: inhibition
units-symbol: %
numeric-value: -16

compound: COc1ccccc1C1/C(=C(/O)c2ccc(C)cc2)C(=O)C(=O)N1Cc1ccco1 (configuration not stated)
assay-readout: inhibition
units-symbol: %
numeric-value: -8.56

compound: Cn1cc(S(=O)(=O)Nc2ccc(Cl)cc2Cl)c(=O)n(C)c1=O
assay-readout: inhibition
units-symbol: %
numeric-value: -4.85

compound: Cc1cc(N2C(=O)C(O)=C(C(=O)c3ccc(C)o3)C2c2ccc(OCc3ccccc3)cc2)no1 (configuration not stated)
assay-readout: inhibition
units-symbol: %
numeric-value: -3.21

In the following, a different compound is considered.
Which inhibition is listed for CCOc1ccc(N(C)Cc2cc(=O)oc3ccc(OC)cc23)cc1 ? -26.5

* * *

# test: A qHTS for Small Molecule Inhibitors of Shiga Toxin
# experimental-setup: Vero cells, Shiga toxin protein synthesis inhibition reporter; at 38.7 µM, active compounds read high
Among all 290,000 compounds or so, about 27,000 (9.3%) were called active. This is one part of a sample in which actives are shown more often than they occur.
Tick 1 (yes) if inhibition is 50% or greater. Tick 0 (no) if inhibition is less than 50%.

molecule: COc1ccc(C2=NN(C(=O)c3ccccc3C(=O)O)C(c3ccccc3O)C2)cc1 (stereo not given)
class-assignment: 1 (yes)

molecule: COc1ccc(C2CC(c3ccc([N+](=O)[O-])cc3)=NN2C(C)=O)cc1 (stereo not given)
class-assignment: 0 (no)

molecule: COc1ccc(C2=NN(C(=O)CCC(=O)O)C(c3cccs3)C2)cc1OC (stereo not given)
class-assignment: 0 (no)

Now look at this entry.
Test whether the molecule CCc1ccc(NC(=O)N2CCc3ccccc3C2)cc1 records inhibition of 50% or higher. 1 (yes)
